# assayed_system: IDH2 R172K (Homo sapiens, UniProt P48735, R172K)
# assay_explanation: IDH2 R172K enzymatic assay (NADPH cofactor depletion, diaphorase/resazurin readout)
# measurement_context: read-out: Enz R172K
measure_name: IC50

Previously resolved entries follow.
| sample_smiles | assayed_system | IC50 |
| --- | --- | --- |
| CC(C)(CO)CNc1nc(Nc2ccnc(C(F)(F)F)c2)nc(-c2cccc(Cl)n2)n1 | IDH2 R172K (Homo sapiens, UniProt P48735, R172K) | < 100 nM |
| CC(C)(O)CNc1nc(Nc2cnc(F)c(Cl)c2)nc(-c2cccc(C(F)(F)F)n2)n1 | IDH2 R172K (Homo sapiens, UniProt P48735, R172K) | 100 to 1000 nM |
| CC(F)(F)c1cccc(-c2nc(NCC3CC3)nc(Nc3ccnc(C4(C#N)CC4)c3)n2)n1 | IDH2 R172K (Homo sapiens, UniProt P48735, R172K) | < 100 nM |

Look up IC50 for this compound: `CC(C)Nc1nc(Nc2cc(F)cc(F)c2)nc(-c2cnc(N)nc2)n1`
100 to 1000 nM

---

# assayed_system: IDH2 R140Q (Homo sapiens, UniProt P48735, R140Q)
# assay_explanation: IDH2 R140Q enzymatic assay (cofactor depletion, similar format)
# Type: biochemical
# measurement_context: read-out: Enz R140Q
// reported IC50 for each item listed

| molecule | IC50 |
| --- | --- |
| FC(F)(F)CCNc1nc(Nc2ccncc2)nc(-c2ccccc2)n1 [Compound 263] | < 100 nM |
| CC(C)Nc1nc(Nc2ccccc2)nc(-c2cc(Cl)ccn2)n1 [Compound 228] | < 100 nM |
| CC(C)Nc1nc(Nc2ccnc(F)c2)nc(-c2ccccc2F)n1 [Compound 371] | < 100 nM |
| CC(C)(O)CNc1nc(Nc2cncc(C(F)(F)F)c2)nc(-c2cccc(Cl)n2)n1 [Compound 367] | 100 to 1000 nM |

Look up IC50 for this molecule: CC(C)Nc1nc(Nc2cc(F)cc(F)c2)nc(-c2ccnc(N)n2)n1 [Compound 482]
100 to 1000 nM

Look up IC50 for this molecule: c1ccc(-c2nc(NCC3CCC3)nc(Nc3ccncc3)n2)cc1 [Compound 250]
< 100 nM

Look up IC50 for this molecule: COc1ccc(Nc2nc(NC(C)C)nc(-c3ccccc3)n2)cc1 [Compound 159]
100 to 1000 nM

Look up IC50 for this molecule: OC1CC1Nc1nc(Nc2ccnc(C(F)(F)F)c2)nc(-c2cccc(C(F)(F)F)n2)n1 (stereo not drawn) [Compound 569]
100 to 1000 nM

Look up IC50 for this molecule: CC(C)Nc1nc(Nc2ccccc2C#N)nc(-c2ccccc2)n1 [Compound 165]
100 to 1000 nM

---

# assayed_system: IDH2 R172K (Homo sapiens, UniProt P48735, R172K)
# Sequence (P48735 40-452 R172K): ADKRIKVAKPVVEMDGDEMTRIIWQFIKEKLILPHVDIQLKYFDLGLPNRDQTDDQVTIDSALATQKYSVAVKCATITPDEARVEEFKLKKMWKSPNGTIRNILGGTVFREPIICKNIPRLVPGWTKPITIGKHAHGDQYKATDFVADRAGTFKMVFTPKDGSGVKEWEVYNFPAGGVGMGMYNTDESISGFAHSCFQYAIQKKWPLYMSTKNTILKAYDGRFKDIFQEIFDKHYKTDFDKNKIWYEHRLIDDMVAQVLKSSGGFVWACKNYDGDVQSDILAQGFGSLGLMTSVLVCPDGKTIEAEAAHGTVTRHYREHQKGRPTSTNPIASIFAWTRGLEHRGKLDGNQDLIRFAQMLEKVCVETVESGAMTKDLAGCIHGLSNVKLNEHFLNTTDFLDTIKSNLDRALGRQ
# assay_explanation: IDH2 R172K enzymatic assay (NADPH cofactor depletion, diaphorase/resazurin readout)
# measurement_context: read-out: Enz R172K
# Description: Compounds are assayed for IDH2 R172K inhibitory activity through a cofactor depletion assay. […] The reaction is terminated by the addition of a second enzyme, diaphorase, and a corresponding substrate, resazurin. […]
pIC50: −log10 of the molar value.
measure_name: pIC50

| molecule | measure_name | value_measured |
| --- | --- | --- |
| CS(=O)(=O)c1cc(F)cc(Nc2nc(NCC3CC3)nc(-c3cccc(C(F)(F)F)n3)n2)c1 [Compound 593] | pIC50 | > 7.00 |
| CC(C)Nc1nc(Nc2ccncc2)nc(-c2cccc(Cl)c2)n1 [Compound 185] | pIC50 | 6.00 to 7.00 |
| CC(C)Nc1nc(Nc2cccc(S(=O)(=O)C(C)C)c2)nc(-c2ccccc2)n1 [Compound 206] | pIC50 | 6.00 to 7.00 |
| CC(C)Nc1nc(Nc2ccnc(F)c2)nc(-c2ccccc2)n1 [Compound 223] | pIC50 | > 7.00 |
| CC(C)Nc1nc(Nc2ccnc(C(C)(C)C#N)c2)nc(-c2cccc(C(C)(F)F)n2)n1 [Compound 677] | pIC50 | > 7.00 |
| Fc1cncc(Nc2nc(NC3COC3)nc(-c3ccccc3F)n2)c1 [Compound 625] | pIC50 | 6.00 to 7.00 |
| CC(C)Nc1nc(Nc2ccnc(C(F)(F)F)c2)nc(-c2cccc(CO)c2)n1 [Compound 639] | pIC50 | > 7.00 |
| CC(C)Nc1nc(Nc2ccncc2)nc(-c2ccccc2Cl)n1 [Compound 226] | pIC50 | 6.00 to 7.00 |
| CC(F)(F)c1cccc(-c2nc(NCC3CC3)nc(Nc3cccc(S(C)(=O)=O)c3)n2)n1 [Compound 611] | pIC50 | 6.00 to 7.00 |
| CC(C)Nc1nc(Nc2ccnc(C(F)(F)F)c2)nc(-c2cc(F)cc(Cl)c2)n1 [Compound 647] | pIC50 | 6.00 to 7.00 |

Look up pIC50 for this molecule: CC(C)(C)Nc1nc(Nc2ccnc(C(F)(F)F)c2)nc(-c2cccc(C(F)(F)F)n2)n1 [Compound 602]
> 7.00

Look up pIC50 for this molecule: COC1(c2cc(Nc3nc(NC(C)C)nc(-c4cccc(C(F)(F)F)n4)n3)ccn2)CC1 [Compound 559]
> 7.00

Look up pIC50 for this molecule: OC1CCCC1Nc1nc(Nc2ccnc(C(F)(F)F)c2)nc(-c2cccc(C(F)(F)F)n2)n1 (centres unmarked) [Compound 588]
6.00 to 7.00

Look up pIC50 for this molecule: CC(C)(C)CNc1nc(Nc2ccnc(C(F)(F)F)c2)nc(-c2cccc(N)n2)n1 [Compound 689]
> 7.00

Look up pIC50 for this molecule: COc1cccc(-c2nc(Nc3ccnc(C(F)(F)F)c3)nc(NC(C)C)n2)c1F [Compound 631]
> 7.00

Look up pIC50 for this molecule: CC(C)Nc1nc(Nc2ccnc(C(F)F)c2)nc(-c2cccc(C(F)(F)F)n2)n1 [Compound 551]
> 7.00

Look up pIC50 for this molecule: CC(O)CNc1nc(Nc2ccccc2)nc(-c2ccccc2)n1 (centres unmarked) [Compound 240]
5.00 to 6.00
